Target sequence: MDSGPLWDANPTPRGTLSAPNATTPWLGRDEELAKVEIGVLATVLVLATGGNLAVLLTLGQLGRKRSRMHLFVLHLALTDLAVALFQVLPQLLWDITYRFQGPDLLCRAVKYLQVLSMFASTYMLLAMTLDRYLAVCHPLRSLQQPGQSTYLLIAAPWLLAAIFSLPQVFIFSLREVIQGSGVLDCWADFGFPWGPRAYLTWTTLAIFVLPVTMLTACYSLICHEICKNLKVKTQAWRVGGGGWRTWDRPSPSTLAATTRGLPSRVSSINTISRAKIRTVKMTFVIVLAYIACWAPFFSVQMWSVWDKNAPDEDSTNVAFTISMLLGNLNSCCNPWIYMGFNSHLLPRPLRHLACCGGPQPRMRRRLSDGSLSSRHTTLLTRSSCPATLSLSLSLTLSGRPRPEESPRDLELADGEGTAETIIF
pKi: −log10 of the molar value.
The following compounds are shown together with reported pKi values.

Observe how each entry below is paired with its result.
{"Compound": "COc1ccc(S(=O)(=O)N2C(=O)C(c3cc(CN(C)C(C)C)ccc3OC)(N3CCC[C@H]3c3ncco3)c3ccc(Cl)cc32)cc1 (stereo partly drawn) [Example 33]", "pKi": "6.00 to 7.00"}
{"Compound": "COCCN(C)Cc1ccc(OC)c(C2(N3CCC[C@H]3c3ncco3)C(=O)N(S(=O)(=O)c3ccc(OC)cc3)c3cc(Cl)ccc32)c1 (stereo partly drawn) [Example 34]", "pKi": "6.00 to 7.00"}
{"Compound": "COc1ccc(S(=O)(=O)N2C(=O)C(c3ccc(CN4CCN(C)CC4)cc3OC)(N3CCC[C@H]3c3ncco3)c3cc(Cl)c(F)cc32)cc1 (stereo partly drawn) [Example 201]", "pKi": "> 8.00"}
{"Compound": "COc1ccc(S(=O)(=O)N2C(=O)C(c3cccc(CN(C)C)c3OC)(N3CCC[C@H]3c3ncco3)c3cc(Cl)ccc32)cc1 (stereo partly drawn) [Example 194]", "pKi": "7.00 to 8.00"}

// query Entry COc1ccc(CN2CCN(C)CC2)cc1C1(N2CCC[C@H]2c2ncco2)C(=O)N(S(=O)(=O)c2ccc(OC(F)(F)F)cc2)c2ccc(Cl)cc21 (stereo partly drawn) [Example 141] needs its pKi filled in; supply it.
// result 6.00 to 7.00

// query Fill in pKi for record CCCNCc1ccc(C2(N3CCC[C@H]3c3ncco3)C(=O)N(S(=O)(=O)c3ccc(OC)cc3)c3ccc(Cl)cc32)c(OC)c1 (stereo partly drawn) [Example 20]
// result > 8.00

// query Return value of pKi for input COc1ccc(S(=O)(=O)N2C(=O)C(c3cc(CN4CCN(C)CC4)ccc3OC)(N3C[C@H](F)C[C@H]3c3ncco3)c3cc(C#N)ccc32)cc1 (stereo partly drawn) [Example 228] , no commentary.
// result 7.00 to 8.00

// query Answer with the recorded pKi for the compound listed here: COc1ccc(S(=O)(=O)N2C(=O)C(c3ccc(CN4CCCC4)cc3OC)(N3CCC[C@H]3c3ncco3)c3cc(C#N)ccc32)cc1 (stereo partly drawn) [Example 101]
// result 7.00 to 8.00

// query Specify measured pKi for COc1cc(CN(C)C)ccc1C1(N2C[C@H](O)C[C@H]2c2ncco2)C(=O)N(S(=O)(=O)c2ccc(C#N)cc2)c2ccc(Cl)cc21 (stereo partly drawn) [Example 182] .
// result 7.00 to 8.00

// query Kindly indicate its recorded pKi. Item: COc1ccc(S(=O)(=O)N2C(=O)C(c3cc(CN4CCNCC4)ccc3OC)(N3C[C@H](O)C[C@H]3c3ncco3)c3cc(Cl)ccc32)cc1 (stereo partly drawn) [Example 113]
// result > 8.00

// query Check the records and state pKi for COc1ccc(S(=O)(=O)N2C(=O)C(c3ccc(CNC(C)C)cc3OC)(N3CCC[C@H]3c3ncco3)c3cc(Cl)ccc32)cc1 (stereo partly drawn) [Example 136]
// result 7.00 to 8.00

// query Answer with reported pKi of COc1ccc(S(=O)(=O)N2C(=O)C(c3cc(CN4CCCN(C)CC4)ccc3OC)(N3CCC[C@H]3c3ncco3)c3cc(Cl)ccc32)cc1 (stereo partly drawn) [Example 91]
// result > 8.00

// query Return pKi (reported value) for this compound: COc1ccc(S(=O)(=O)N2C(=O)C(c3cc(CN4CCNC(=O)C4)ccc3OC)(N3CCC[C@H]3c3ncco3)c3cc(Cl)ccc32)cc1 (stereo partly drawn) [Example 125]
// result 7.00 to 8.00

// query Supply recorded pKi for CCN(C)Cc1ccc(C2(N3C[C@H](O)C[C@H]3c3ncco3)C(=O)N(S(=O)(=O)c3ccc(OC)cc3)c3ccc(Cl)cc32)c(OC)c1 (stereo partly drawn) [Example 170] here.
// result > 8.00

// query Identify the reported pKi for the following entry. COc1ccc(S(=O)(=O)N2C(=O)C(c3cc(CN4CCC4)ccc3OC)(N3CCC[C@H]3c3ncco3)c3ccc(Cl)cc32)cc1 (stereo partly drawn) [Example 38]
// result 6.00 to 7.00

// query State its pKi for this compound: COc1ccc(S(=O)(=O)N2C(=O)C(c3ccc(CN4CCN(C)CC4)cc3OC)(N3CCC[C@H]3c3ncco3)c3cc(C#N)ccc32)cc1 (stereo partly drawn) [Example 42]
// result 7.00 to 8.00

// query Please report pKi for the following compound: COc1ccc(S(=O)(=O)N2C(=O)C(c3cc(CN4CCOCC4)ccc3OC)(N3CCC[C@H]3c3ncco3)c3cc(Cl)ccc32)cc1 (stereo partly drawn) [Example 96]
// result 7.00 to 8.00
